Assay: chemical genetic growth profiling, strain panel (AID 1159580);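 note: tested at 20 µM; growth read once vehicle control cultures reached saturation at 30 °C; 1 = growth at the plate median or of vehicle wells; lower values mean less growth of the strain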
Details: S. cerevisiae deletion strains, growth OD, locus YCL061C, strain MRC1 (second series), hits give low values
Out of some 5,500 compounds screened, about 2,000 (36%) were called active. About 18% were inconclusive and are not listed. The list shows a part of the results.
MEASURED_QUANTITY: normalized growth
Just the number, please, no unit attached.

CC(CCc1ccc(O)cc1)NCCc1ccc(O)c(O)c1 (stereo unspecified)    0.812
C/C=C1\C(=O)CC2C3CCC4=CC(=O)CC[C@]4(C)C3CC[C@]12C (stereo partly specified)    1
Cc1c(C(=O)c2cccc3ccccc23)c2cccc3c2n1[C@H](CN1CCOCC1)CO3    0.986
CC(C)(C)c1onc(OCP(=O)(O)O)c1CC(N)C(=O)O (stereo unspecified)    0.997
NCCSSCCN    1
CC(CCc1ccccc1)NC(C)C(O)c1ccc(O)cc1 (stereo unspecified)    1
CC(=O)OCC1=C(C(=O)O)N2C(=O)C(NC(=O)CSc3ccncc3)C2SC1 (stereo unspecified)    0.991
CCOC(=O)C12CC1/C(=N\O)c1ccccc1O2 (stereo unspecified)    0.995

Request: Identify normalized growth associated with the compound C[C@@H](NCCc1ccc(O)cc1)[C@@H](O)c1ccc(O)cc1
Result: 0.989

Request: Identify normalized growth associated with the compound CNCCc1ccc(O)c(O)c1
Result: 0.956

Request: Identify normalized growth associated with the compound C=Cc1c2[nH]c(c1C)Cc1[nH]c(c(C)c1C=C)C=C1N=C(C=c3[nH]c(c(C)c3CCC(=O)O)=C2)C(CCC(=O)O)=C1C
Result: 1.01
